Each recorded value in this set is attributed to patent US20260209362A1.

Target: T1, biotinylated recombinant mouse IL-12Rβ2 (produced in-house) (mouse, UniProt P97378 24-637, random biotinylated)
T1 construct: also called mIL-12RB2; mIL12RB2
T1 sequence: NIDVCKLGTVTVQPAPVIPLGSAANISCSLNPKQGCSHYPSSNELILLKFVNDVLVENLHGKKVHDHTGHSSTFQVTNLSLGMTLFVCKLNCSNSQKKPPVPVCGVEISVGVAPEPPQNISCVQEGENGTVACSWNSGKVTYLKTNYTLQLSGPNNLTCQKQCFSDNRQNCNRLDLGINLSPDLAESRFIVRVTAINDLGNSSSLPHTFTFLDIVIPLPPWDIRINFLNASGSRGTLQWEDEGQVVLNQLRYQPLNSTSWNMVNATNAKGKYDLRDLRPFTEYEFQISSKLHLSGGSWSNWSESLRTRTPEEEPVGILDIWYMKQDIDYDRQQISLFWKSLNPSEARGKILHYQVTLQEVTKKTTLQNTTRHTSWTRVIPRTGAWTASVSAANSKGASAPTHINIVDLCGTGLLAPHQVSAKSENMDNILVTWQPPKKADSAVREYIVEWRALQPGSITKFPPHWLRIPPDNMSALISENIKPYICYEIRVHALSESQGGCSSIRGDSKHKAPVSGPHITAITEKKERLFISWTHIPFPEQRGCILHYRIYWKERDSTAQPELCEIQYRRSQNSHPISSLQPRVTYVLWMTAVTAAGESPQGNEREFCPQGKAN
Experiment: ELISA, P.E. VHH on biotinylated mIL-12RB2

[
  {
    "binder": "anti-IL-12Rβ2 VHH clone 3CRHS163 (VHH, not shown: small tags and cut ends, tested as periplasmic extract) VHH: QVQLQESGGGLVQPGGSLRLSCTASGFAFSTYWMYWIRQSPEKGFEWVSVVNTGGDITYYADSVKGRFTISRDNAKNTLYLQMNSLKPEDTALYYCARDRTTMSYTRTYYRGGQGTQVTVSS",
    "binding result": "no binding"
  },
  {
    "binder": "anti-IL-12Rβ2 VHH clone 3CAHS124 (VHH, not shown: small tags and cut ends, tested as periplasmic extract) VHH: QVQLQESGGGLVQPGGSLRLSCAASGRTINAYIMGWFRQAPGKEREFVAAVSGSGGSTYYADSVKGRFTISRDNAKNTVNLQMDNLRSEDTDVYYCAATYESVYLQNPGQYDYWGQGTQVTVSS",
    "binding result": "no binding"
  }
]
